Target Or Test System: T1, full-length human FGFR1c on HEK293/hFGFR1c/SRE-luc cells (human, UniProt P11362 22-822)
T1 construct: amino acids 1-733 of NP_075593
T1 sequence (P11362 other isoform, or with tags, fused parts or gaps limits assumed): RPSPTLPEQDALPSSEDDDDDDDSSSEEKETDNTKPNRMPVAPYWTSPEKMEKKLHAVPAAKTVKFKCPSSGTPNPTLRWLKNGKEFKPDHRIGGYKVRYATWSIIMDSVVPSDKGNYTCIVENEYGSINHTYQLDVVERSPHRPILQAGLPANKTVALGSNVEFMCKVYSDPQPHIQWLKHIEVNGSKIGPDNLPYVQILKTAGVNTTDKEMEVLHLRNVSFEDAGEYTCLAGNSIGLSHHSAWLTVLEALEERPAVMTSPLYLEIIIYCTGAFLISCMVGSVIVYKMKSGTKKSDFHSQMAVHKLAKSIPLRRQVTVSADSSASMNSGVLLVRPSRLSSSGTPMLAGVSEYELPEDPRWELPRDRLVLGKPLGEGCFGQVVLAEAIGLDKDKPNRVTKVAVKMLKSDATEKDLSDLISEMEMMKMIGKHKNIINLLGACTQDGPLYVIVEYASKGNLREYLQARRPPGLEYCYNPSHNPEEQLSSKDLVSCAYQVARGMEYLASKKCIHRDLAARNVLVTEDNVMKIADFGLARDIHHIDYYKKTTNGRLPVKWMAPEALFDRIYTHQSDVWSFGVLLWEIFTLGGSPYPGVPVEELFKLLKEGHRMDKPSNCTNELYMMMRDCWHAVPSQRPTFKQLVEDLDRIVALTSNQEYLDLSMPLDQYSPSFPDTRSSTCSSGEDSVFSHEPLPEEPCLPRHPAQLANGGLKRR
Assay Info: FACS on stable HEK293 cells
Description: To determine binding specificity of the monoclonal anti-KLB/FGFR1c antibodies, the antibodies were tested in a fluorescence-activated cell sorting (FACS) binding assay to cell lines expressing human FGFR1c, human KLB, and both human FGFR1c and human KLB. […]
Measured binding ratio to unstained cells by item
Reported Endpoint: binding ratio to unstained cells

* H4H8859P (antibody, V domains shown, human IgG4 Fc (H4H prefix)) VH: EVQLVESGGSVVRPGGSLRLSCAASGFTFDVYGMSWVRQAPGKGLEWVSGINWIGGSTGYADSVKGRFTISRDNAKNSLYLQMNSLRAEDTALYYCTREEDYWGQGTLVTVSS VL: DVVMTQSPLSLAVTLGQPASISCRSSQSLVYSDGNTYLNWFQQRPGQSPRRLFYKVSNRDSGVPDRFSGSGSGTDFTLKISRVEAEDVGIYYCMQGIKWPLTFGGGTKVEIK | 5 fold
* H2aM8091N (antibody, V domains shown, mouse IgG2 Fc (H2aM prefix); also called H2M8091N) VH: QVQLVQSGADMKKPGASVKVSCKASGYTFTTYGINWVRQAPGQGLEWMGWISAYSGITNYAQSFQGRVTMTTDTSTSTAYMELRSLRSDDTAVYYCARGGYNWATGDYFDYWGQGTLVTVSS VL: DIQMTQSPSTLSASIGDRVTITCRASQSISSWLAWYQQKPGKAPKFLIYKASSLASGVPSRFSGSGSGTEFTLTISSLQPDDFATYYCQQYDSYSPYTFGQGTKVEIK | 1 fold
* H4H8852P (antibody, V domains shown, human IgG4 Fc (H4H prefix)) VH: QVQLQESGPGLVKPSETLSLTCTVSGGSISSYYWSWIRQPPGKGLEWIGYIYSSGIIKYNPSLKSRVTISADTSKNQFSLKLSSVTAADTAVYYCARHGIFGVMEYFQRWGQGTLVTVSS VL: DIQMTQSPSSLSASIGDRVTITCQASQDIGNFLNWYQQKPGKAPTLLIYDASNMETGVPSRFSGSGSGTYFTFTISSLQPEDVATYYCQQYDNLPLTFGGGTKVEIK | 1 fold
